# credit: ChEMBL document CHEMBL3301361

assay: in vitro; settings: Beagle, dog, plasma
Entries annotated with measured fraction unbound at 5 h
Please give the numeric answer without any surrounding text.

# Compound, fraction unbound at 5 h
data = [
    ("CN(C)CCCN1c2ccccc2CCc2ccccc21", 0.0437),
    ("N#Cc1ccc(NC(=O)Nc2ccccc2Br)c2nn[nH]c12", 0.0049),
]

Give fraction unbound at 5 h for CCN(CC)CCN1C(=O)C(O)(c2ccccc2Cl)c2c1cc(C(N)=O)cc2C(F)(F)F (centres undefined) 0.212

Give a short answer stating reported fraction unbound at 5 h for COc1ccc(CC(=O)NCc2ccccc2-c2ccccc2C(=O)NCCc2cccnc2)cc1 . 0.0705

Please give the documented fraction unbound at 5 h of COC(=O)C1=C(C)NC(C)=C(C(=O)OC)C1c1ccccc1[N+](=O)[O-] 0.0736

Answer with the recorded fraction unbound at 5 h for the compound listed here: Cc1ccc2c(c1)c(-c1cc(C)nc3ccccc13)c(C)n2CC(=O)O 0.0133

Identify measured fraction unbound at 5 h corresponding to COc1ccc(CCO[C@@H]2CCCC[C@H]2N2CC[C@@H](O)C2)cc1OC 0.772

Provide measured fraction unbound at 5 h value, entry: CCCc1nc(C(C)(C)O)c(C(=O)O)n1Cc1ccc(-c2ccccc2-c2nnn[nH]2)cc1 0.0119

Retrieve fraction unbound at 5 h measured for CC(C)Oc1cc(-n2cnc3ccc(N[C@@H](CO)c4ccc(F)cn4)nc32)n[nH]1 and print it. 0.304

###

assay: in vitro; settings: human, plasma, PPB
# label = T if fraction unbound at 5 h >= 0.05 else F

# Compound, Assigned Category
measured = [
    ("CCC(=O)N1CCN(C(=O)c2cc(Cc3n[nH]c(=O)c4ccccc34)ccc2F)CC1", "T"),
    ("CC(C)(C)COc1ccc(-n2cc(C(=O)O)cn2)cc1C#N", "F"),
    ("Cc1ccc(-n2c(C)cc(/C=C3\\SC(=O)NC3=O)c2C)cc1", "F"),
    ("CCC[C@H](CO)Nc1nc(S[C@@H](C)c2cccc(C#N)c2)nc2[nH]c(=O)sc12", "F"),
    ("N#C[C@@]1(NC(=O)[C@@H](N)Cc2cccs2)C[C@@H]1c1ccccc1", "T"),
    ("Cc1c(Cl)ccc(OC2CCN(CC3CCN([C@@H](Cc4ccc(F)cc4)C(=O)O)CC3)CC2)c1Cl", "F"),
    ("COC(=O)[C@H](c1ccccc1Cl)N1CCc2sccc2C1 [CLOPIDOGREL]", "F"),
    ("N#Cc1cc(F)c(Cl)cc1O[C@H](CCN)c1ccccc1", "T"),
    ("O=c1cc(N2CCOCC2)nc2n(Cc3cccc(F)c3)ccn12", "T"),
    ("CC(=O)c1cn(Cc2ccccc2)c(=O)n(Cc2ccc(F)cc2)c1=O", "F"),
]

Determine whether this compound has fraction unbound at 5 h no lower than 0.05: Cc1cc(C(C)Nc2ccccc2)c2nc(N3CCOCC3)cc(=O)n2c1 (stereo unspecified) T

Dear colleague, could you confirm whether COc1ncc(-c2cccc3c2C[C@H](NC(=O)c2ccc(OCCC(F)(F)F)nc2)CO3)cn1 has fraction unbound at 5 h at or above 0.05? F

# bool: fraction unbound at 5 h of Cc1nn(-c2ccc(F)cc2)c(NS(=O)(=O)c2ccc(C(F)(F)F)cc2)c1C(=O)N[C@@H](C)C(C)(C)C >= 0.05 F

Is fraction unbound at 5 h at least 0.05? Consider Cc1cnc(C(=O)c2ncnc3[nH]ccc23)c(NS(=O)(=O)c2ccc(Cl)c(C(F)(F)F)c2)c1 [ILACIRNON] F

Is fraction unbound at 5 h at least 0.05? Consider Cc1ccc2c(c1)c(-c1ccnc3cc(Cl)ccc13)c(C)n2CC(=O)O F

fraction unbound at 5 h >= 0.05 for C[C@H](c1nc2ncccc2c(=O)n1-c1ccc(Cl)cc1)N(CC1CCS(=O)(=O)CC1)C(=O)Cc1ccc(C(F)(F)F)c(F)c1 ? T

Hi team, for COCCC(Oc1ncnc2c1cnn2-c1ccccc1OC)C(=O)Nc1ccc(C)cn1 (stereo unspecified) , is the recorded fraction unbound at 5 h at or above 0.05? T

Does the compound COc1ccc(CC(=O)NCc2ccccc2-c2ccccc2C(=O)NCCc2cccnc2)cc1 have recorded fraction unbound at 5 h that is 0.05 or more? F

Has CC(C)N1CCN(Cc2cnc(-c3cc(-c4cccc5[nH]ccc45)cc4[nH]ncc34)o2)CC1 [NEMIRALISIB] a recorded fraction unbound at 5 h greater than or equal to 0.05? F

Threshold query (fraction unbound at 5 h >= 0.05) on CCOC(=O)C1=C(C)NC(C)=C(C(=O)OC)C1c1cccc([N+](=O)[O-])c1 (stereo unspecified) [NITRENDIPINE] F

Identify whether the reported fraction unbound at 5 h of the following compound is 0.05 or greater: CC(=O)Nc1ccc2c(c1)N(c1cc(NC3CC3)n3ncc(C#N)c3n1)CC2 F

Decide: is the reported value of fraction unbound at 5 h for C[C@H](c1ccc(F)cc1CCCC(=O)O)N(c1cc(F)ccc1F)S(=O)(=O)c1ccc(Cl)cc1 equal to or greater than 0.05? F

Identify whether the reported fraction unbound at 5 h of the following compound is 0.05 or greater: CN(c1ccccc1)S(=O)(=O)c1ccc(NC(=O)C(C)(O)C(F)(F)F)cc1 (stereo unspecified) F

Check if fraction unbound at 5 h >= 0.05 (inclusive). Item: CN[C@@H](C)C(=O)N[C@H](C(=O)N[C@H]1CCCN(CCc2ccc(Br)cc2)C1)C(C)(C)C F

API: above_or_equal(metric=fraction unbound at 5 h, cutoff=0.05) for item COc1ccc(CCN2CCC(Nc3nc4ccccc4n3Cc3ccc(F)cc3)CC2)cc1 [ASTEMIZOLE] F

Record O=C(O)COc1ccccc1N1CCC(CN2CCC(Oc3ccc(Cl)c(Cl)c3)CC2)CC1 ; criterion: fraction unbound at 5 h no lower than 0.05. Met? F
